The reported measurements were obtained from PubChem BioAssay (NCI).

# System: HOP-92 NSCLC
# measurement_protocol: NCI tumour cell line growth inhibition, 48 h
Record form. Attribute: TGI. Fill in for each entry.

For orientation, consider the following solved cases.
1. O=C1C2SC34c5c2c2ccccc2n5CCC3CCCN14 (stereo unspecified) | > 100 µM
2. COc1ccc2occ(CCC(=O)O)c2c1 | > 100 µM

Okay, here is my list. What is TGI for each of these?
1. Cc1ccc(-c2c(C#N)c(-c3ccc(C)cc3)n(NS(=O)(=O)c3ccccc3)c(=O)c2C#N)cc1
2. Brc1ccc2[nH]cc(-c3csc(-c4c[nH]c5ccccc45)n3)c2c1
3. CCN(CC)CCNc1ccc2nnn3c4ccc(OCCN(CC)CC)cc4c(=O)c1c23
4. Cc1ccc(S(=O)(=O)c2[nH]cc(/C(=C\C3CCCCC3)[N+](=O)[O-])c2C2CCCCC2)cc1
5. CC[As](CC)SC[C@H](C)C(=O)N1CCC[C@H]1C(=O)O

1: > 100 µM; 2: 7.68 µM; 3: > 100 µM; 4: 3.99 µM; 5: 0.0933 µM

Here are 4 compounds. What values of TGI were reported for them?
1. C=CCc1cccc2cc(C(=O)NCc3ccccc3)c(=N)oc12
2. NS(=O)(=O)c1ccc(/C=C/c2ccc(O)c(O)c2)cc1
3. O=c1sc2ccccc2n1CC1CS1 (stereo unspecified)
4. CC1=C(C)CC2C(=O)N(c3cc(C(C)(C)C)ccc3C(C)(C)C)C(=O)C2C1 (stereo unspecified)

1. > 100 µM
2. 47.9 µM
3. > 100 µM
4. > 100 µM

====

So I've got a bunch of compounds here, and I need their TGI values.
# Test system: HS 578T breast
# measurement_protocol: NCI tumour cell line growth inhibition, 48 h

1. O=C(Nc1ccccc1)c1cc(S(=O)(=O)NC2=NC(c3ccccc3)c3cc(Cl)ccc3N2)c(SSc2cc(Cl)c(C(=O)Nc3ccccc3)cc2S(=O)(=O)NC2=NC(c3ccccc3)c3cc(Cl)ccc3N2)cc1Cl (stereo not drawn) | > 100 µM
2. S=C(Nc1ccc(Cl)cc1)Nc1ccc(-c2nc3ccccc3s2)cc1 | 39.2 µM
3. [N-]=[N+]=Nc1c([N+](=O)[O-])c(=O)n(-c2ccccc2)c2ccccc12 | 72.1 µM
4. COc1cccc(C2CC(C)(O)Oc3cc4c(cc32)OCO4)c1O (stereo not drawn) | 51.6 µM
5. Cc1cc(Cl)cc(OCCn2cc(F)cn2)c1-c1nc(N)nc2c1CN(C(=O)NCC(C)(F)F)C2 | > 100 µM

I would be grateful if you could provide TGI for each of the following entries.
1. COC(=O)COc1ccccc1/C=C1\N=C(c2ccccc2)N(c2cc(C(F)(F)F)ccc2Cl)C1=O
2. O=P(O)(O)CCP(=O)(O)O
3. COc1cc(OCc2cccc(-c3ccc(C(O)c4nccs4)cc3)c2C)cc(OC)c1C=O (stereo not drawn)
4. C[C@H]1[C@H]2[C@H]3CC[C@@H]4[C@@]5(C)CC[C@H](O)C(C)(C)[C@@H]5CC[C@@]4(C)[C@]3(C)C[C@H](O)[C@@]2(C)C[C@H]2O[C@]21C

> 100 µM
> 100 µM
20.5 µM
61 µM

# batch size: 3; output TGI per entry
1. C=CCc1cccc2cc(C(=O)NCc3ccccc3)c(=N)oc12
2. COc1cc(C(=O)N2CCN(C=O)C2=S)cc(OC)c1OC
3. O=C1/C(=C/c2ccc(Br)s2)NC(=S)N1c1ccccc1

1: 63.8 µM; 2: > 100 µM; 3: > 100 µM

====

# System: OVCAR-4 ovarian
# measurement_protocol: NCI tumour cell line growth inhibition, 48 h
Classification field: Fulfilled = TGI at or over 40 µM; Not fulfilled = TGI under 40 µM.

For orientation, consider the following solved cases.
1. CN(C)c1ccc(/C=c2/c3ccccc3n3c2c2c([n+]3C)CCCC2)cc1 | Not fulfilled
2. [N-]=[N+]=Nc1c([N+](=O)[O-])c(=O)n(-c2ccccc2)c2ccccc12 | Fulfilled
3. CC/C=C\C[C@H](O)C/C=C1/C(=O)C(Cl)=C[C@@H]1C/C=C\CCCC(=O)OC | Not fulfilled

Switching to the query record.
Please tell me: is the molecule CCN(CC)CCC(CNc1ccnc2cc(Cl)ccc12)c1ccc(Cl)cc1 (stereo not given) at or over 40 µM in terms of TGI?
Not fulfilled

====

# Tested on: MDA-N
# measurement_protocol: NCI tumour cell line growth inhibition, 48 h
measurement_label: TGI

Here is how some compounds turned out for TGI.
1. CC1(C)CC(=O)C(C=NC(=S)c2ccccc2)=C(O)C1 | > 100 µM
2. O=C(Nc1ccccc1)c1cc(S(=O)(=O)NC2=NC(c3ccccc3)c3cc(Cl)ccc3N2)c(SSc2cc(Cl)c(C(=O)Nc3ccccc3)cc2S(=O)(=O)NC2=NC(c3ccccc3)c3cc(Cl)ccc3N2)cc1Cl (stereo not drawn) | > 100 µM

Next up:
Requested read-out: TGI. Entry: O=C(O)c1nnsc1-c1ccc(-c2snnc2C(=O)O)cc1
> 100 µM

====

# Tested on: CAKI-1 renal
# measurement_protocol: NCI tumour cell line growth inhibition, 48 h
Please respond with reported TGI for every item in the list.

I would be grateful if you could provide TGI for each of the following entries.
1. Oc1ccc(Nc2ncnc3c2sc2ncccc23)cc1
2. O=C(CCN(C(=O)O)S(=O)(=O)c1ccc(NC(=O)c2ccccc2)cc1)Nc1ccccc1

1. 9.21 µM
2. > 100 µM

I have 2 molecules here; please give me TGI for each one.
1. COC(=O)c1ccc2c(c1)nc(NC(=O)c1ccccc1)n2CCCc1ccccc1
2. C[C@H]1[C@H]2[C@H]3CC[C@@H]4[C@@]5(C)CC[C@H](O)C(C)(C)[C@@H]5CC[C@@]4(C)[C@]3(C)C[C@H](O)[C@@]2(C)C[C@H]2O[C@]21C

> 100 µM
69.8 µM

====

# Tested on: A498 renal
# measurement_protocol: NCI tumour cell line growth inhibition, 48 h
measurement_label: TGI

Reference set, count: 3
1) O=c1[nH]nnc2c1sc1ncccc12 | > 100 µM
2) CN1C(=O)c2ccccc2OC12C=Cc1c(ccc3ccccc13)O2 (stereo unspecified) | 44.9 µM
3) O=C1/C(=C/c2ccc(Br)s2)NC(=S)N1c1ccccc1 | > 100 µM

Items follow; give TGI for each.
1. C(=NCCN1CCOCC1)=NC1CCCCC1
2. COc1ccc(Sc2[nH]c(C(C)=O)c3ccccc23)cc1
3. CC(C)(C)OC(=O)NC1CCCCC1NC(=O)C(=O)NC1CCCCC1NC(=O)OC(C)(C)C (stereo unspecified)
4. CO[C@@]12C[C@@H](C)C3=CCC(C)=C3CC1=C(C)C(=O)O2
5. O=[N+]([O-])C[C@@]12O[C@]3(O)C4C5CC(C6C5C3C61)C42 (stereo partly specified)
6. O=S(=O)(O)CCCc1cccc2ccccc12
7. NC(N)=NS(=O)(=O)c1ccc(NNc2c3ccccc3nc3c(C(=O)Nc4ccc(S(=O)(=O)Nc5ncccn5)cc4)cccc23)cc1

["> 100 µM", "0.848 µM", "79.6 µM", "> 100 µM", "> 100 µM", "> 100 µM", "> 100 µM"]

Quick check: TGI of CN=C(n1ccnc1)n1ccnc1 ?
> 100 µM

====

# Test system: NCI/ADR-RES ovarian
# measurement_protocol: NCI tumour cell line growth inhibition, 48 h
Task for the reader: assign each of the following compounds its reported TGI.

Completed entries (count: 2):
1) NC(=S)N/N=C/C(=O)O | > 100 µM
2) CCOC(=O)Nc1[nH]cc(-c2ccccc2)c1C#N | > 100 µM

Please give TGI, item by item, for the list that follows.
1. COc1cc(C2c3cc4c(cc3OC(N3CCCCC3)C2C)OCO4)cc(OC)c1O (stereo not given)
2. Cn1c(I)c(C#CCO[Si](C)(C)C(C)(C)C)c(=O)[nH]c1=O

1. 18.5 µM
2. 38.1 µM

Need TGI for each of these compounds.
1. O=C(Nc1ccccc1)c1cc(S(=O)(=O)NC2=NC(c3ccccc3)c3cc(Cl)ccc3N2)c(SSc2cc(Cl)c(C(=O)Nc3ccccc3)cc2S(=O)(=O)NC2=NC(c3ccccc3)c3cc(Cl)ccc3N2)cc1Cl (stereo not given)
2. O=C1c2ccccc2C(=O)c2c(NCC(O)CO)ccc(NCC(O)CO)c21 (stereo not given)
3. COC(=O)C1=C(C(=O)OC)N(c2ccc(OC)cc2[N+](=O)[O-])C(c2ccc(C)cc2)=CC1c1ccc(OC)cc1OC (stereo not given)
4. C[n+]1c2ccc(Cl)cc2nc2cc(-c3ccccc3)ccc21
5. NC(N)=NCCN1CC2CCC(CC2)C1
6. CC(=O)c1ccccc1NP(=O)(c1ccccc1)c1ccccc1

1. > 100 µM
2. > 100 µM
3. > 77.8 µM
4. > 100 µM
5. > 100 µM
6. > 100 µM
